# test_details: yeast display, Sf9 membrane polyspecificity reagent, FACS + sequencing; frameworks hold sequencing errors

residue_sequence	polyreactivity (PSR sort gate)
QVQLVESGGGLVQAGGSLRLSCAASGSTFGYYAMGWYRQAPGKERELVAAITWGGASTDYADSVKGRFTISRDNAKNTVYLQMNSLKPEDTAVYYCAKDNWDNPRPTSEMDYWGQGTQVTVSS	low polyreactivity
QVQLVESGGGLVQAGGSLRLSCAASGRIFGWYAMGWYRQAPGKERELVAAISRGGTTYYADSVKGRFTISRDNAKNTVYLQMNSLKPEDTAVYYCAAPVPYYVPRRNEGDYWGQGTQVTVSS	low polyreactivity
QVQLVESGGGLVQAGGSLRLSCAASGRTFDDYAMGWYIQAPGKERELVAGIRWSVGNTDYADSVKGRFTISRDNAKNTVYLQMNSLKPEDTAVYYCNARPFLTVLYLFYGNNYDYWGQGTQVTVSS	low polyreactivity
QVQLVESGGGLVQAGGSLRLSCAASGSIFNRNAMGWYRQAPGKERELVAAITGRGGSTYYADSVKGRFTISRDNAKNTVYLQMDSLKPEDTAVYYCAAETLAPRAYYYWGQGTQVTVSS	low polyreactivity

---

# test_details: yeast display, Sf9 membrane polyspecificity reagent, FACS + sequencing; frameworks hold sequencing errors

residue_sequence	polyreactivity (PSR sort gate)
QVQLVESGGGLVQAGGSLRLSCAASGSTFKHYAMGWYRQAPGKERELVAAISERGGSTYYADSVKGRFTISRDNAKNTVYLQMNSLKPEDTAVYYCARRVSRFSKFGYWGQGTQVTVSS	high polyreactivity
QVQLVESGGGLVQAGGSLRLSCAASGSTFYSYAMGWYRQAPGKERELVAAISSSAGSTYYADSVKGRFTISRDNAKNTVYLQMNSLKPEDTAVYYCAAPKRYGVRYGYWGQGTQVTVSS	high polyreactivity

---

# test_details: yeast display, Sf9 membrane polyspecificity reagent, FACS + sequencing; frameworks hold sequencing errors
value_kind: polyreactivity (PSR sort gate)

residue_sequence	polyreactivity (PSR sort gate)
QVQLVESGAGLGQAGGSLRLSCAASGSNDIYAMGWNRQEPGKEREFVAAISYSSGSTYYADSVKGRFTISRDNAKNTVFLQMNSLIPVDTAVYYCAAVWQAGVYRYYYWGQGTQVTVSS	high polyreactivity
QVQLVESGGGLVQAGGSLRLSCAASGFIFWYYALGWYRQAPGKERELVAAISARDGSTYYADSVKGRFTISRDNAKNTVYLQMNSLKPEDTAVYYCNAVQRYPKFRMDYWGQGTQVTVSS	low polyreactivity
QVQLVESGGGLVQAGGSIRLSCAASGYSFNGYAMGWYRQAPGKEREFVAAISWSGGSTYYADSVKGRFTISRDNAKNTVYLQMNSLKPEDTAVYYCAKRRGGGYDYWGQGTQVTVSS	low polyreactivity
QVQLVESGGGLVQAGGSLRLSCAASGSTFVVYAMGWYRQATGKERELVAAISANVGGTYYADSVKGRFTISRDNAKNTVYLQMNSLKPEVTAVYYCAADYAYNYFWRPGDYWGQGTQVTVSS	low polyreactivity
QVQLVESGGGLVQAGGSLRLSCAASGSIFNKYAMGWYRQAPGKERELVAAISVSGTRTYYADSVKGRFTISRDNAKNTVYLQMNSLKPEDSAVYYCATKFFRTAYEYWGQGTQVTVSS	high polyreactivity

Now look at this one.
Sample QVQLVQSGGGLFQAGGSLRLSCAPSGSIFDPNALGWYRQAPAKERELVAAISSGGSRKYSDSVKGRFTISRDNAKNTVYLQMNRLIPEDTAVYYCDASPRQGMYYWGQGTQVTVSS ; polyreactivity (PSR sort gate) observed: high polyreactivity

---

# test_details: yeast display, Sf9 membrane polyspecificity reagent, FACS + sequencing; frameworks hold sequencing errors
value_kind: polyreactivity (PSR sort gate)

Example sequences with recorded polyreactivity (PSR sort gate):
residue_sequence	observed_result
QVQLVESVGGLVQAGGSLRLICAASGRTFSRNAMGWYRQAPGKERELVAGISWRGTSTYYADSVKGRFTISRDNAKNTVFLQMNSLKPEDTAVYYCNRVFEYWSEYDYWGQGTQVTVSS	high polyreactivity
QVQLVESGGGLVQAGGSLRLSCAASGFIFGDYAMGWYRQAPGKERELVAAIRGSDSTTYYADSVKGRFTISRDNAKNTVYLQMNSLKPEDTAVYYCAAVGVVPRKKSARVYYWGQGTQVTVSS	low polyreactivity
QEQLQESGGGQVQAGGSLLLSCAASGNIIRYYYMGWYRQAQGKVRELVAAITYGTSTNYADSVKGRFTISRDNAKNTVYLQMNSLKPEDTAVYYCAVDVNYGDPLDNWGEGTQVTVSS	high polyreactivity
QVQLGESGGGLVQAGGSVRLSCAASGRTFDTNAMGWYRQAPGKERELVAAISWSAGRTYYADSVKGRFTISRDNAKNTVYLQMNSLKPEDTAVYYCAARPPFIAYSWQKHGYYWGQGTQVTVSS	low polyreactivity

For record QVQLVESAGGLVQAGGSLRLSCAASAFTFFDYVMGWYRQAPGKERELVAAISRNVGSTYYADSVKGRFTISRDNAKNTVYLQMNSLKPEDTAVYYCAGEPPPYEYDYWGQGTQVTVSS the listed polyreactivity (PSR sort gate) is high polyreactivity

---

# test_details: yeast display, Sf9 membrane polyspecificity reagent, FACS + sequencing; frameworks hold sequencing errors
value_kind: polyreactivity (PSR sort gate)

Here are 5 sequences together with their reported answers.
residue_sequence	polyreactivity (PSR sort gate)
QVQLVESGGGLVQAGGSLRLSCAASGSTFDGNAMGWYRQAPGKERELVAAITSGGSTNYADSVKGRFTILRDNAKNTVYLQMNSLKPEDTAVYYCAAGWLYARWHSYVGYYYWGQGTQVTVSS	low polyreactivity
QVQLVESGGGLVQAGGSLRLSCAASGYIFPTNAMGWYRPATRKERELLAVITSGGSTYYADSVKGRFTISRDNAKNTVYLLMNSLKPDDTAVYYCAARYQGRYGIYRVLYGYWGQGTQVTVSS	high polyreactivity
QVQLVESGGGLVQAGGSLRLSCAASGSIFRGYAMGWYRQAPGKERELVAVITKSGGRTYYADSVKGRFTISRDNAKNTVYLQMNRLKPEDTAVYYCAKQPGSAYDYWGQGTQVTVSS	high polyreactivity
QVQLVESGGGLVQAGGSLRLSCAASGNTFGWNAMGWSRQAPGKERELVAAIDIGADTNYADSVKGRFTISRDNAKNTVYLQMNSLKPEDTAVYYCAASYRYVRWKWGYNYWGQGTQVTVSS	high polyreactivity
QFQHVESGAGLVHAGGCLRLSCSASGRTFFYNAMGWYRQPPGKEREFVASITWSGSTYYADSVKGRFTISRDNAKNTVYLLMNRLKQEDTAVYYCAADRQGGLVIDSGGYDYWGQGTQVTVSS	low polyreactivity

Input QVQLEESGGGLVQAGGSLRLSCAASGSIFQINAMGWYRQAPGKERELVAAITRGGGTTYYADSVKGRFTISRDNAKNTVYLQMNSLKPEDTAVYYCAADFERRRYDYWGQGTQVTVSS . Output polyreactivity (PSR sort gate): low polyreactivity

Item: QVQLVESGGGLVQAGGSLRLTCAASGITFTSYVMGWYRQAPGKERELVAAIRWSGGRTYYADSVKGRFTISRDNAKNSVYLQMNSLKPEDTAVYYCNRVTRSHVDYWGQGTQVTVSS | polyreactivity (PSR sort gate): high polyreactivity

polyreactivity (PSR sort gate) recorded for this sequence, QVQVVESGGGLVQAGGTLRLSCAASGFILPHYTMGWYRQAPAKERELVAAITSGVSTYYADSVKGRFTISRDNAKNTVYLQMNSLKTEDTAVYYCNALATYIGYKYDYWGQGTQVTVSS , is low polyreactivity

polyreactivity (PSR sort gate) in this record for QFQLVESGRGLVQAGGSLRLSCAASVRTFGFNAMGRYRQAPRKERELVAAISGSGGRTYYADSVKGRFTISRDKAKNTVYLQMNSLKPEDTAVYYCAAGARRGGSGYWGQGTQVTVSS : high polyreactivity

The measured polyreactivity (PSR sort gate) associated with QVQLVESGGGLVQAGGSLRLSCAASGSIFALNVMGWYRQAPGKEREFVAAISVRSGSTYYADSVKGRFTISRDNAKNTVYLQMNSLKPEDTAVYYCAARTSRFWRGGGLDYWGQGTQVTVSS reads high polyreactivity

Please fill in: polyreactivity (PSR sort gate) reported for QVQLVESGGGLVQAGGSLRLSCAASGRIFSYYTMGWYRQAPGKEREMVAAITWNGGSTYYADSVKGRFTISRDNAKNTVYLQMNSLKPEDTGVYYCNRDVRYVGPSGFDYWGQGTQVTVSS = high polyreactivity

The reported polyreactivity (PSR sort gate) of the sequence QVQLVESGGGLVQAGGSLRLSCAASGLTFKFNAMGWYRQAPGKERELVAAISFGGDDTYYADSVKGRFTISRDNAKNTVYLQMNSLKPEDTAVYYCAAEYDTWGYSGRDYWGQGTQVTVSS was low polyreactivity

Summary for this sequence, QVQLVESGGGLVQAGGSLRLSCAASGRTFWYYTMGWYRQAPGKERELVAAISSGGRTNYADSVKGRFTISRDNAKNTVYLQMNSLKPEYTAVYYCATSRYYKYVERDYWGQGTQVTVSS : polyreactivity (PSR sort gate) is high polyreactivity

The value of polyreactivity (PSR sort gate) measured for the sequence QVQIVESGGGLVQAGGSLRLSCAASGITFTVYAMGWYRQAPGKVRELVAAINSGSSTNYADSVKGRFTISRDNAKNTVYLQMNSLNPEDTAVYYCAASYRKLPDKKRYGYWGQGTQVTVSS turned out to be high polyreactivity

sequence QDQLVESGGGLVQAGGSLRLSCAASGSIFADYAMGWYRQAPGKERELVAVISRRGGTTYYADSVKGRFTISRDNAKNTVYLQMNSLKPEDTAVYYCAARRSFNEYDSWGHGTQVTVSS , polyreactivity (PSR sort gate) observed: high polyreactivity

Note to self: polyreactivity (PSR sort gate) recorded for QVQLVESGGGLVQAGGSLRISCAASGSIYWDNAMGWYRQAPGQESELVAAITSSGDTTYYADSVKGRFTISRDNAKNTVYLQMNSQKPEDTAVYYCAADYYTAYYVTLDYWGQGTQVTVSS was low polyreactivity

Noted for QDHLVESGGGLVQAGGSLRLSCAASGSTFYFYAMGWYREAPGKERELVAVISSGGRTYYADSVKGRFTISRDNAKNSVYLQMNSLKPVDTGVYYGAASWPSSLTFYYWGHGTQVTVSS : its polyreactivity (PSR sort gate) reads low polyreactivity

Field polyreactivity (PSR sort gate) (entry QVQLVESGGGLVQAGGSLRLSCAASGSTFGDYSMGWYRQAPGKERELVAAISRGGSTYYADSVKGRFTISRDNAKNTVYLQMNSLKPEDTAVYYCNNDVGYSASPDGSTFDYWGQGTQVTVSS ) reads low polyreactivity

// polyreactivity (PSR sort gate) lookup, sequence = QVQIVDSGAVIVQAGGSLRLSCDASGRIILINAMGWYRQAPGKERELVAAITSSGGSTYYADSVKGRFTISRDNAKNTVYLQMNSLKPEDTAVYYCAAARYSRYDYWGQGTQVTVSS , result: high polyreactivity

Item: QVQLVESGGGLVQAGGSLRLSCAASGIILRYYAMGWYRQAPGKERELVAAISGSGTRTYYADSVKGRFTISRDNAKNTVYLQMNSLKPEDTAVYYCAALVWGGYDYWGQGTQVTVSS | polyreactivity (PSR sort gate): high polyreactivity

Please fill in: polyreactivity (PSR sort gate) reported for QVHLVESGGGLVQAGGSLRLSCAASGLIFTTNAMGWYRQAPGKERDFVAAISPSGGSTYYADSVKGRFTISRDNSKNTVYLQMNSLKPEDTAVYYCAARYSTVWHKYYYWGQGTQVTVSS = high polyreactivity
